Measured Property: melting point

Report melting point for CC(C)(Cc1c(Sc2ccccc2)c2cc(-c3ccccc3)ccc2n1Cc1ccc(Cl)cc1)C(=O)O please.
182 to 183 °C

May I ask what melting point has been recorded for O=C1CC2OC(CBr)CN12 (stereo unspecified) ?
49 to 50 °C

# lookup: melting point of CCc1c(Cc2cc(C)cc(C)c2)n(COCCCCO)c(=O)[nH]c1=O
101 to 103 °C

What value of melting point has been reported for the following molecule? O=C(Nc1ccccc1)Nc1ccc2ccc(Cl)nc2n1
276 °C

Fill blank: measured melting point of the molecule Cc1cccc(Nc2cc(Nc3ccc(OCC#N)cc3)ncn2)c1 is ____.
207 to 210 °C

Further cases:
Recorded melting point of CN(C(=O)CN(C(=O)CN1C(=O)c2ccccc2C1=O)c1ccccc1Cl)c1ccccc1 , please.
168 °C

// returns reported melting point for input O=C=Nc1c(Cl)cc(Cl)cc1Cl
65 to 66 °C

// returns reported melting point for input Cc1cccc(C2(O)CCN(c3ccc(O)nn3)CC2)c1
265 °C

Consider the molecule COc1ccc(NS(=O)(=O)c2cc(C)c3cc(C(C)C)ccc(C)c2-3)c(OC)c1 and give its measured melting point.
114 to 116 °C

For the molecule shown here, CCOc1ccc(-c2nc(C=O)cs2)cc1OCC , give the reported melting point.
84 to 87 °C

Which melting point value belongs to CCOC(=O)C1=C(N)NC(N)=C(C(=O)OCC)C1c1c(OC)ncnc1OC ?
219 °C

Consider the molecule shown here: CCOC(=O)c1c(N(Cc2c(F)cccc2F)C(=O)OCC)sc(-c2ccc([N+](=O)[O-])cc2)c1CBr What is its recorded melting point?
105 to 108 °C

From: a melting point compilation (Tetko et al.; mined from patent text by program, amines drawn as free bases though some values may be those of a salt)
